# TEST_PROTOCOL: Determination of absolute oral bioavailability in rats
# Type: in vivo, Sprague-Dawley rat
# TEST_CONDITIONS: rat, whole blood; non-fasted female Sprague-Dawley rats; oral solution 0.3 mg/kg (85), 2 mg/kg (49, 50); iv 0.3 mg/kg (49, 50), 0.8 mg/kg racemic 85/86
Counter-ions that a name gives are not always drawn.
OBSERVED_PROPERTY: bioavailability (%)
Just the number please, in %, no unit attached.

Exercise: What value of bioavailability has been reported for the following compound? CC(C)Oc1ccc(-c2nc(-c3cccc4c3CC[C@H]4N)no2)cc1C#N [Compound 49, hydrochloride]
Key: 93

----------
# TEST_SYSTEM: S1P1/EDG1 (Homo sapiens, UniProt P21453)
# Sequence (P21453 whole entry): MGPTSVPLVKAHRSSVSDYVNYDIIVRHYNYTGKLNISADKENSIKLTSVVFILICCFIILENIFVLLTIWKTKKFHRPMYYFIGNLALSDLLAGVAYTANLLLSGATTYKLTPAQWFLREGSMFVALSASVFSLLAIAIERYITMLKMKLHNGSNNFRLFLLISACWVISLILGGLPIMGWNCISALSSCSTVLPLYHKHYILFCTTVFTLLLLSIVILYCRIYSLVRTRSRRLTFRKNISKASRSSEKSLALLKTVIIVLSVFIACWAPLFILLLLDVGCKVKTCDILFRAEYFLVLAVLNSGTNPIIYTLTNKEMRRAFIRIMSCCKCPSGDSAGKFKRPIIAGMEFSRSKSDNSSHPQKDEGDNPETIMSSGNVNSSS
# TEST_PROTOCOL: S1P1 CRE-bla CHOK1 reporter assay, inhibition of Forskolin induced cAMP
# Type: cell-based
# TEST_CONDITIONS: agonist activity range, S1P1 CRE-bla CHOK1, 2 μM Forskolin; read-out: S1P1 ACTIVITY
We begin with a simple list: items and their reported EC50.

Here's what some known entries look like.
compound="CC(C)Oc1ccc(-c2nc(-c3cccc4c3CC[C@@H]4NC(=O)N3CC[C@H](O)C3)no2)cc1C#N [Compound 233]" observed_result="0.05 to 0.5 nM"
compound="CC(C)Oc1ccc(-c2nc(-c3cccc4c3CC[C@@H]4NC[C@@H](O)[C@H](O)[C@H](O)CO)no2)cc1C#N [Compound 119]" observed_result="0.5 to 5 nM"
compound="CC(C)Oc1ccc(-c2nc(-c3cccc4c3CC[C@H]4O)no2)cc1C(F)(F)F [Compound 7]" observed_result="0.5 to 5 nM"
compound="CC(C)Oc1ccc(-c2nc(-c3cccc4c3CC[C@@H]4NCCS(C)(=O)=O)no2)cc1C#N [Compound 126]" observed_result="0.05 to 0.5 nM"
compound="CC(C)Oc1ccc(-c2nc(-c3cccc4c3CC[C@H]4NS(=O)(=O)CC(=O)O)no2)cc1C#N [Compound 184]" observed_result="< 0.05 nM"

Now, please, on to the next compound.
Exercise: Any idea what EC50 was measured for COC(=O)CCCCNC1CCc2c(-c3noc(-c4ccc(OC(C)C)c(C#N)c4)n3)cccc21 (racemic) [Compound 147] ?
Key: < 0.05 nM

----------
Listed next: entries and their corresponding EC50.
# TEST_SYSTEM: S1P1/EDG1 (Homo sapiens, UniProt P21453)
# TEST_PROTOCOL: S1P1 CRE-bla CHOK1 reporter assay, inhibition of Forskolin induced cAMP
# Format: cell-based
# TEST_CONDITIONS: S1P1 CRE-bla CHOK1, with Forskolin; read-out: S1P1 agonist value (EC50)
Where a name gives a salt, the structure may show the parent alone.

Exercise: So what EC50 did `CC(C)Oc1ccc(-c2nc(-c3cccc4c3CC[C@@H]4N)no2)cc1C#N` get with S1P1/EDG1 (Homo sapiens, UniProt P21453)?
Key: 0.19 nM

Exercise: Next up: `CC(C)Oc1ccc(-c2nc(-c3cccc4c3CC[C@@H]4NC(=O)N3CC(O)C3)no2)cc1C#N`
Key: 0.1 nM

Exercise: For `COCCS(=O)(=O)N[C@H]1CCc2c(-c3noc(-c4ccc(OC(C)C)c(C#N)c4)n3)cccc21` then?
Key: 0.36 nM

Exercise: # iterate: `CC(C)Oc1ccc(-c2nc(-c3cccc4c3CC[C@@H]4NCC(=O)N(C)C)no2)cc1C#N`
Key: 0.09 nM

Exercise: Then `COCCS(=O)(=O)N[C@@H]1CCc2c(-c3noc(-c4ccc(OC(C)C)c(C#N)c4)n3)cccc21` ?
Key: 0.09 nM

Exercise: For CC(C)Oc1ccc(-c2nc(-c3cccc4c3CC[C@H]4NCC(=O)N(C)C)no2)cc1C#N [Compound 90, hydrochloride] then?
Key: 0.13 nM

Exercise: Subsequent entry: `CC(C)Oc1ccc(-c2nc(-c3cccc4c3CC[C@H]4NS(=O)(=O)CCO)no2)cc1C#N`
Key: 0.05 nM

Exercise: Then what about the molecule CC(C)Oc1ccc(-c2nc(-c3cccc4c3CC[C@H]4N)no2)cc1C#N [Compound 49, hydrochloride] ?
Key: 0.17 nM

----------
As shown below, each of these compounds has a reported Dose Resulting in 10% increase in lung weight value.
# TEST_PROTOCOL: Evaluation of therapeutic index in rats: 5 or 14 day toxicology study, lung to body weight ratio
# Assay type: in vivo, Sprague-Dawley rat
# TEST_CONDITIONS: rats, oral, 5 or 14 consecutive days; interpolated from dose versus lung to body weight
Give just the numeric value; mg/kg need not be written.

The following compounds have reported results that may help.
compound="CC(C)Oc1ccc(-c2nc(-c3cccc4c3CC[C@H]4NS(=O)(=O)CCO)no2)cc1C#N [Compound 186]" unit_symbol=mg/kg observed_result=1.1
compound="CC(C)Oc1ccc(-c2nc(-c3cccc4c3CC[C@H]4NC(=O)N3CC(O)C3)no2)cc1C#N [Compound 234]" unit_symbol=mg/kg observed_result=21.3
compound="CC(C)Oc1ccc(-c2nc(-c3cccc4c3CC[C@@H]4NS(=O)(=O)CCO)no2)cc1C#N [Compound 187]" unit_symbol=mg/kg observed_result=5.0

Now for another entry.
Exercise: Which Dose Resulting in 10% increase in lung weight value belongs to CC(C)Oc1ccc(-c2nc(-c3cccc4c3CC[C@@H]4NC(=O)N3CC(O)C3)no2)cc1C#N [Compound 235] ?
Key: 11.3

----------
# TEST_SYSTEM: S1P4 (Homo sapiens, UniProt O95977)
# Construct: Tango fusion (own knowledge: protease cleavage site plus GAL4-VP16 transcription factor at the receptor's C-terminus)
# Sequence (O95977 whole entry, the tested form may be a part): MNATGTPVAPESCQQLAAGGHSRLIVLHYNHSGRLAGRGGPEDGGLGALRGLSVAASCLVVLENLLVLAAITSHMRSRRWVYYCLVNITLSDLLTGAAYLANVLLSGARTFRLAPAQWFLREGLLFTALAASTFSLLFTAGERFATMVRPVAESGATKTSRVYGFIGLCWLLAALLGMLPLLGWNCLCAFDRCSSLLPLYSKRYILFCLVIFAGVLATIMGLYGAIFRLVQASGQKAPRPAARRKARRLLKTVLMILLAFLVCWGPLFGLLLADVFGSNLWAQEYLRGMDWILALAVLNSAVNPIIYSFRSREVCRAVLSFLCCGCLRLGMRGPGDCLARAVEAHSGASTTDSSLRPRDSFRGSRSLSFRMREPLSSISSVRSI
# TEST_PROTOCOL: Specificity over other S1P receptors: S1P4-bla TANGO U2OS assay
# TEST_CONDITIONS: read-out: S1P4 agonist value (EC50)
# Description: Cells were seeded into 384-well black wall/clear bottom plates at 10^4 cells/well/19.5 μl assay media (DMEM-phenol free, 0.5% charcoal/dextran stripped serum, 2 mM glutamine, 0.1 mM NEAA, 1 mM Na-Pyruvate, 25 mM Hepes) and incubated for 18 hrs at 37° C. in 5% CO2. […] Plates were read at Ex:410/Em:458 and Ex:410/Em:522, and the response ratio determined. Data was analyzed by non-linear regression to determine the EC50 for inhibition of Forskolin induced cAMP. […]
Counter-ions that a name gives are not always drawn.
Measured pEC50, listed per entry.
Scale for pEC50: -log10 of concentration given in mol/L; no unit attached.

Reference set, count: 3
compound="CCOc1ccc(-c2nc(-c3cccc4c3CCC4O)no2)cc1OCC (racemic) [Compound 254, reference compound]" test_system="S1P4 (Homo sapiens, UniProt O95977)" observed_property=pEC50 observed_result=5.26
compound="CC(C)Oc1ccc(-c2nc(-c3cccc4c3CC[C@H]4N)no2)cc1C#N [Compound 49, hydrochloride]" test_system="S1P4 (Homo sapiens, UniProt O95977)" observed_property=pEC50 observed_result=5.04
compound="CCOc1ccc(-c2nc(-c3cccc4c3CCC4NCCO)no2)cc1OCC (racemic) [Compound 253, reference compound]" test_system="S1P4 (Homo sapiens, UniProt O95977)" observed_property=pEC50 observed_result=5.49

Exercise: // lookup pEC50 for `CC(C)Oc1ccc(-c2nc(-c3cccc4c3CC[C@H]4NS(=O)(=O)CCO)no2)cc1C#N`
Key: 5.92

Exercise: One more compound: `CC(C)Oc1ccc(-c2nc(-c3cccc4c3CC[C@H]4NCCO)no2)cc1C#N`
Key: 5.79

Exercise: Lookup `CC(C)Oc1ccc(-c2nc(-c3cccc4c3CC[C@H]4NC(=O)N3CC(O)C3)no2)cc1C#N`
Key: 6.13

Exercise: Same for `CC(C)Oc1ccc(-c2nc(-c3cccc4c3CC[C@@H]4NCCO)no2)cc1C#N`
Key: 5.38

Exercise: // query: `CC(C)Oc1ccc(-c2nc(-c3cccc4c3CC[C@@H]4N)no2)cc1C#N`
Key: 5.10

----------
# TEST_SYSTEM: S1P1/EDG1 (Homo sapiens)
# TEST_PROTOCOL: S1P1 CRE-bla CHOK1 reporter assay, inhibition of Forskolin induced cAMP
# Type: cell-based
# TEST_CONDITIONS: agonist activity range, S1P1 CRE-bla CHOK1, 2 μM Forskolin; read-out: S1P1 ACTIVITY
Documented EC50 across a set of compounds

compound="CC(C)Oc1ccc(-c2nc(-c3cccc4c3CC[C@H]4N3CC(C(=O)N(C)C)C3)no2)cc1C#N [Compound 204]" observed_result="50 to 500 pM"
compound="CC(C)Oc1ccc(-c2nc(-c3cccc4c3CC[C@@H]4NS(N)(=O)=O)no2)cc1C#N [Compound 249]" observed_result="< 50 pM"
compound="CC(C)Oc1ccc(-c2nc(-c3cccc4c3CC[C@@H]4NS(=O)(=O)CCC(=O)O)no2)cc1C#N [Compound 185]" observed_result="< 50 pM"
compound="CC(C)Oc1ccc(-c2nc(-c3cccc4c3CCC4N3CCOCC3)no2)cc1C#N (racemic) [Compound 46]" observed_result="500 to 5000 pM"
compound="CC(C)Oc1ccc(-c2nc(-c3cccc4c3CC[C@H]4NC(=O)N3CCC(O)CC3)no2)cc1C#N [Compound 240]" observed_result="500 to 5000 pM"
compound="CC(C)Oc1ccc(-c2nc(-c3cccc4c3CCC4NC[C@H](O)CO)no2)cc1C#N (mixture of isomers) [Compound 41]" observed_result="50 to 500 pM"

Exercise: Please give the measured EC50 for this compound: N#Cc1cccc(-c2nc(-c3cccc4c3CC[C@H]4N)no2)c1 [Compound 92]
Key: > 5000 pM

Exercise: Could you do the same for CC(C)Oc1ccc(-c2nc(-c3cccc4c3CC[C@@H]4N3CCOC3=O)no2)cc1C#N [Compound 155] , please?
Key: 50 to 500 pM

Exercise: Could you do the same for CC(C)Oc1ccc(-c2nc(-c3cccc4c3CC[C@@H]4NC(=O)N3CCNCC3)no2)cc1C#N [Compound 214] , please?
Key: 50 to 500 pM

Exercise: Record: COC(=O)C1CCN(C(=O)N[C@@H]2CCc3c(-c4noc(-c5ccc(OC(C)C)c(C#N)c5)n4)cccc32)CC1 [Compound 236]
Key: 50 to 500 pM

Exercise: Now this one: CC(=O)N[C@@H]1CCc2c(-c3noc(-c4ccc(OC(C)C)c(C#N)c4)n3)cccc21 [Compound 138]
Key: < 50 pM

Exercise: How about this compound: CC(C)Oc1ccc(-c2nc(-c3cccc4c3CC[C@H]4N[C@H](C)CO)no2)cc1C#N [Compound 56]
Key: 50 to 500 pM
